Test system: wild-type E. coli K-12
Assay type: cell-based, Escherichia coli
Settings: K-12; NMP + antibiotic
readout kind: Effect

[[record]]
smiles_data = "CC(=O)O[C@H]1C[C@@]2(C)[C@@H](C[C@@H](O)[C@H]3[C@@]4(C)CC[C@@H](O)[C@@H](C)[C@@H]4CC[C@@]32C)/C1=C(\\CCC=C(C)C)C(=O)O"
readout_kind = "Effect"
recorded_result = "Synergistic"

[[record]]
smiles_data = "Cc1onc(-c2ccccc2)c1C(=O)N[C@@H]1C(=O)N2[C@@H]1SC(C)(C)[C@@H]2C(=O)O"
readout_kind = "Effect"
recorded_result = "Synergistic"

[[record]]
smiles_data = "CC(=O)NC[C@H]1CN(c2ccc(N3CCOCC3)c(F)c2)C(=O)O1"
readout_kind = "Effect"
recorded_result = "Synergistic"

